- assayedSystem: T1, human glucose-dependent insulinotropic polypeptide (GIP) receptor (human, UniProt P48546 22-466)
- T1 sequence (looked up): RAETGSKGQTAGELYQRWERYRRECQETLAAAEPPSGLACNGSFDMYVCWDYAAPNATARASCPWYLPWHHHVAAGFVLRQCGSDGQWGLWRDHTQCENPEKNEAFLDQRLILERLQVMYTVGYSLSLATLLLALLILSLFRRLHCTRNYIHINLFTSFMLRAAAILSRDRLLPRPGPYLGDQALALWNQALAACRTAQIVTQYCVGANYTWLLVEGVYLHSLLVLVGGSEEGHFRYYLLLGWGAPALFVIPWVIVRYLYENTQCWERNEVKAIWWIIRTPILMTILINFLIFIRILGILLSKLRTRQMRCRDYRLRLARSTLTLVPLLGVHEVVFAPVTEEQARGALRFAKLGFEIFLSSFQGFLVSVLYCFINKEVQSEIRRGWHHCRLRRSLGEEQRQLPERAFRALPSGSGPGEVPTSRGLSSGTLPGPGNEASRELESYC
- experimentDescription: cell-based or functional assay
*1 amine or outer side, *2 acyl side, *3 side chain or, on linkers, in order; H or OH if unused. Where no end group is shown, it is not given here. Side-chain parts run from the residue outwards. [ ]: non-standard residue; d: D form. The star is where a group is joined. αMePhe(2-F) = C[C@](N)(Cc1ccccc1F)C(=O)O; C14 diacid = O=C(O)CCCCCCCCCCCCC(=O)*; εLys = N[C@@H](CCCCN[*:1])C(=O)[*:2]; αMeY = C[C@](N)(Cc1ccc(O)cc1)C(=O)O; αMeL = CC(C)C[C@](C)(N)C(=O)O; Orn = NCCC[C@H](N)C(=O)O; AEEA = NCCOCCOCC(=O)O; Aib = CC(C)(N)C(=O)O
endpointName: cAMP EC50 (pM)
Field: numeric (pM). Do not append units.

Query string: Dear colleague, please send me the reported cAMP EC50 for Y[Aib]EGT[αMePhe(2-F)]TSDV[Aib]I[αMeL]LD[Orn]K([AEEA-AEEA-εLys-C14 diacid])AQ[Aib]EFIK([AEEA-AEEA-εLys-C14 diacid])[αMeY]LIEGGPSSGAPPPS-NH2 [Example 166] when you can.
Result string: 77.4

Query string: Dear colleague, please send me the reported cAMP EC50 for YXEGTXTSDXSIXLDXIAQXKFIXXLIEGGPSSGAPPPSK (Aib2, αMeF(2F)6, OMeY10, αMeL13, Orn16, Aib20, K21(Z), D-Glu24, αMeY25, K40(Z), C-terminal NH2; Z = AEEA2-CO-(CH2)12-CO2H) [Example 268] when you can.
Result string: 26.5

Query string: Dear colleague, please send me the reported cAMP EC50 for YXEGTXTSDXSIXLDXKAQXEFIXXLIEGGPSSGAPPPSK (Aib2, αMeF(2F)6, 2Nal10, αMeL13, Orn16, K17(Z), Aib20, D-Glu24, αMeY25, K40(Z), C-terminal NH2; Z = AEEA2-(γ-Glu)-CO-(CH2)12-CO2H) [Example 251] when you can.
Result string: 30.5

Query string: Dear colleague, please send me the reported cAMP EC50 for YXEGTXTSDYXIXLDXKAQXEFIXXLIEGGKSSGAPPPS (Aib2, αMeF(2F)6, Dap11, αMeL13, Orn16, K17(Z), Aib20, D-Glu24, αMeY25, K31(Z), C-terminal NH2; Z = AEEA2-(γ-Glu)-CO-(CH2)12-CO2H) [Example 200] when you can.
Result string: 50.3

Query string: Dear colleague, please send me the reported cAMP EC50 for YXEGTXTSDXSIXLDXIAQXEFIKXLIEGGKSSGAPPPS (Aib2, αMeF(2F)6, 4Pal10, αMeL13, Orn16, Aib20, K24(Z), αMeY25, K31(Z), C-terminal NH2; Z = (εK)-(εK)-(γ-Glu)-CO-(CH2)12-CO2H) [Example 198] when you can.
Result string: 26.9
